melting point: recorded values

Look over these answered cases.
1. O=C(C=Cc1ccccc1-c1ccccc1)c1ccccc1	190 °C
2. CSc1nc(-c2cccnc2)n(-c2ccc(C)c(C)c2)c(=O)c1C#N	> 250 °C
3. CC(C)C1Sc2ccccc2N(CC(N)=O)C(=O)C1N (stereo not drawn)	227 to 229 °C
4. O=C(NCCCCCCc1ccc(-c2ccc(=O)[nH]n2)cc1)c1cccnc1	178 to 179 °C
5. CCCCC[C@@H](CNC(=O)Nc1c(OC(C)C)ccc2c1CCCC2)c1cccc2c1OCO2	115 °C

# get_value(readout='melting point', item= "Fc1cccc(-c2nc(-c3ccccn3)no2)c1F" )
120 to 121 °C

Consider next the molecule "CSc1ccc(NC2=C(C#N)CSC2)c([N+](=O)[O-])c1" in the same way.
141 to 142 °C

And the next one, CN(c1cccc2cc(C3=NCC(CC(=O)NS(C)(=O)=O)S3)[nH]c12)S(=O)(=O)c1cccs1 (stereo not drawn) ?
141 °C

Now try "COc1ccc(S(=O)(=O)Oc2ccc(N3CCNC3=O)cc2)cc1" .
126 to 127 °C

Another molecule to look at: "N#Cc1cc(-c2ccncc2)cnc1Cl"
219 to 223 °C

Now give it for CC1(c2ccccc2NC(c2c(Cl)cccc2Cl)C2CC2)OCCO1 (stereo not drawn) too.
151 °C

// next record COC(=O)c1ccc(C2=NOC(c3cc(Cl)cc(Cl)c3)(C(F)(F)F)C2)c2ccccc12 (stereo not drawn)
137 to 138 °C

Same question for "Cc1ccc(Nc2nc(-c3ccccc3)cs2)nc1" please.
260 to 264 °C

Moving on to "O=C(c1nc(-c2ccccc2)nc2ccccc12)N1CCCCC1"
160 °C

Try this molecule next: "CC(C)C(Br)=C(c1ccccc1)c1ccccc1"
112 to 114 °C

Another molecule to check: "CCCCCCc1nc(N)n2nc(-c3ccco3)nc2n1"
131 to 133 °C

Please do the same for "CC(=O)OCCN(C(=O)CBr)c1ccc(Cl)cc1C(=O)c1ccccc1F" as well.
84 to 88 °C

Would you mind doing "CC(C)n1nc(-c2c(Sc3ccccc3)nc(N)nc2-c2ccccc2)ccc1=O" as well?
214 to 215 °C

====

Here, each record is paired with measured melting point data.

1. COc1cc(Nc2nccc(-c3sc(-c4cccnc4)nc3C)n2)cc(OC)c1OC	210 to 211 °C
2. Nc1nc(NCCC2CCC3(CC2)OCCO3)nc2c1ncn2C1OC(CO)C(O)C1O (stereo not drawn)	133 to 137 °C
3. Cn1cc(C(=O)NCc2ccc(Cl)cc2)c(=O)c2cc(CC3CCOCC3)cc(C#CCO)c21	166 to 168 °C

Item "CCCc1[nH]c(C)c(C(C)=O)c1C" has what recorded melting point?
157 to 158 °C

====

Reported melting point values are given for each entry in this list.

Solved cases below.
1. O=C(O)C1=Cc2ccccc2NC1	223 to 226 °C
2. Oc1ccc2c(c1)nnc1ccccc12	274 to 277 °C
3. ClCCOc1ccc2c(c1)CCC2	45 to 46 °C
4. O=C(c1cccnc1)N1CCC(c2ccc(Br)cc2)=N1	117 to 119 °C
5. C[C@@H](c1ccc(F)cc1)N1CCN(c2cc(Oc3cccc4[nH]c(=O)c(N)nc34)ncn2)CC1	294 to 295 °C
6. COC(=O)c1cccc(C(=O)Nc2ccc(-n3nc(C(F)(F)F)cc3C(F)(F)F)cc2)c1	174 to 175 °C
7. CCOC(=O)C1=Cc2cc(Cl)cc(-c3ccc(Cl)cc3)c2OC1C(F)(F)F (centres undefined)	114 to 116 °C
8. CC1(C)C=CC(=Cc2ccc(F)cc2)C1(O)Cn1ccnc1 (centres undefined)	172 °C
9. c1ccc2c(Nc3ccc4c(c3)CCC4)ncc(Sc3ccncc3)c2c1	100 to 103 °C
10. CC1(C(O)=C(Cc2ccc(Cl)cc2Cl)n2cncn2)COCOC1	190 to 192 °C

I would be grateful if you could share the reported melting point for "Nc1cc(Br)nc(Br)c1[N+](=O)[O-]" .
140 °C

Next entry: "Cc1nc(-n2cnn(CC(=O)Nc3ccc(Cl)cc3)c2=O)sc1C(=O)NCc1cccnc1"
255 to 256 °C

Follow-up entry: "Nc1c(-c2ccc(C(F)(F)F)cc2F)nnn1Cc1ccc(O)cc1"
168 to 170 °C

Another molecule: "Cc1ccc(S(=O)(=O)OC[C@H]2COCCO2)cc1"
53 to 54 °C
